- Condition label: buffer; pH 7.4; 200.0 µM
Exercise: state measured solubility kinetic for each of the compounds provided.

// field: solubility kinetic; key: `O=C(O)c1ccccc1-c1ccccc1C(=O)Nc1nc2ccccc2s1` ; value = > 56.2 µg/mL

// field: solubility kinetic; key: `O=C(O)c1cc(-c2ccccc2)n(-c2ccc(F)cc2)n1` ; value = > 42.3 µg/mL

// field: solubility kinetic; key: `CCc1ccc(NC(=O)NCCN2CCCCC2)cc1` ; value = > 41.3 µg/mL

// field: solubility kinetic; key: CC(C)(C)C1COc2ccccc2N1C(=O)c1ccccc1Cl (stereo unspecified) ; value = < 0.7 µg/mL

// field: solubility kinetic; key: CCOC(=O)NN1C(=O)c2ccccc2NC1c1ccccn1 (stereo unspecified) ; value = > 46.8 µg/mL

// field: solubility kinetic; key: `CCCC(=O)N1CCN(Cc2nc3cc([N+](=O)[O-])ccc3n2C)CC1` ; value = > 51.8 µg/mL

// field: solubility kinetic; key: `O=C(CNC(=O)c1ccccc1F)N/N=C/c1cccnc1` ; value = > 45 µg/mL

// field: solubility kinetic; key: `O=S(=O)(CCSc1ccc(C(F)(F)F)cn1)c1ccc(Cl)cc1` ; value = < 0.8 µg/mL

// field: solubility kinetic; key: `O=C(c1ccc(Br)cc1)C12CN3CN(CN(C3)C1)C2` ; value = > 48.3 µg/mL

// field: solubility kinetic; key: CS(=O)(=O)N1CCCC(C(=O)Nc2ccccc2Cl)C1 (stereo unspecified) ; value = > 47.5 µg/mL

// field: solubility kinetic; key: `CC1CCN(C(=O)c2ccc(NC(=O)c3ccccc3)cc2)CC1` ; value = > 48.4 µg/mL
